systemTested: PI3Kα (Homo sapiens (Human), UniProt P42336)
Sequence (P42336 whole entry): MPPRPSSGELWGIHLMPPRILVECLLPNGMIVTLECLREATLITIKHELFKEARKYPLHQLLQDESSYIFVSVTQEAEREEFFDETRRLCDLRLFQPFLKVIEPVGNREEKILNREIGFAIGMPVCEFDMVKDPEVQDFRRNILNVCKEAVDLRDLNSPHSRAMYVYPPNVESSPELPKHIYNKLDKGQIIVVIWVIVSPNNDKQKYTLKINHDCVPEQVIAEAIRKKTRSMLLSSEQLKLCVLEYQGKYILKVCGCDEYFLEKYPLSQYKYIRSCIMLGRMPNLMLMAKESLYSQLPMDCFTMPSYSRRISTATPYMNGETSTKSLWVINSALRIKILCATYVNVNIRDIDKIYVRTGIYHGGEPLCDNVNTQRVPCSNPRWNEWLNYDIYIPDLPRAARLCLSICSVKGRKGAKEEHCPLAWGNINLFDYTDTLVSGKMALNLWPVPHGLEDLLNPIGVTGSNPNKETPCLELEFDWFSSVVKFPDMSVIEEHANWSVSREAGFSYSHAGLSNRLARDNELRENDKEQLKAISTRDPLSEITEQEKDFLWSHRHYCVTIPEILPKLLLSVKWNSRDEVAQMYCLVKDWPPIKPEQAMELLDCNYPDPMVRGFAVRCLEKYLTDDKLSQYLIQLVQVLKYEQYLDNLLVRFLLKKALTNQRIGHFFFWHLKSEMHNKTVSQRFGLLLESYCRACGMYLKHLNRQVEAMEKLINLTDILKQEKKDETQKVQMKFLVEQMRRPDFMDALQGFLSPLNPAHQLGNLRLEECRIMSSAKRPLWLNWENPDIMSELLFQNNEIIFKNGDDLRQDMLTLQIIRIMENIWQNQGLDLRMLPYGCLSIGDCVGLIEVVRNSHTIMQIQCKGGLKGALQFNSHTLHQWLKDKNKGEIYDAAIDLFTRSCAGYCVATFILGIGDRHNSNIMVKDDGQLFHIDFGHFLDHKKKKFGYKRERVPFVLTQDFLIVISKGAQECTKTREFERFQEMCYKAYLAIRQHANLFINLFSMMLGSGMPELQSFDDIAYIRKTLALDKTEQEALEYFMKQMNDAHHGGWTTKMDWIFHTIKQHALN
Sequence (P27986 whole entry partner): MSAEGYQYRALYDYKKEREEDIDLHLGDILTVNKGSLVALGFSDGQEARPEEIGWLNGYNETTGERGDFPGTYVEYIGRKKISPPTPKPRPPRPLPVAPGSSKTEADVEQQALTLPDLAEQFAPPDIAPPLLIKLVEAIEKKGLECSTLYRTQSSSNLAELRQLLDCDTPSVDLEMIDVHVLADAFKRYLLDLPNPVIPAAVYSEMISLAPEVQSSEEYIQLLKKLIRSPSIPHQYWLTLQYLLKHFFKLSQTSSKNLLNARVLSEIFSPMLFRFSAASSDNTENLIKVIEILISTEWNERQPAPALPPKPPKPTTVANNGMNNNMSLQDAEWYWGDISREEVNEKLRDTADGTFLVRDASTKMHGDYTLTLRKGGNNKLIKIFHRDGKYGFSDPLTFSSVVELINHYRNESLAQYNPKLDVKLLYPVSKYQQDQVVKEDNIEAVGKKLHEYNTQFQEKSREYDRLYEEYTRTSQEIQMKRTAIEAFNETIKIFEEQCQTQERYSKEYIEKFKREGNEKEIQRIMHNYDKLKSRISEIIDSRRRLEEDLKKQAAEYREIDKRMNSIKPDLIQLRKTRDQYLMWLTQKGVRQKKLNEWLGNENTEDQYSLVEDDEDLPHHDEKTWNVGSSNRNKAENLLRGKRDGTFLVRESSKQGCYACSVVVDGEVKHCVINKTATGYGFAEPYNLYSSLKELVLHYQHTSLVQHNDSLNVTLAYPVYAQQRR
testName: Inhibition of PI3Kα efficacy assay (ADP-Glo kinase assay)
Format: biochemical
assayContext: Table 1; read-out: PI3Kα inhibitory activity (IC50)
# pIC50 values compiled below
// field semantics: pIC50 = negative decimal log of concentration (mol/L)

Bench note: what pIC50 did COc1ncc(-c2ccc3ncnc(N4CCC5(CC4)CN(C(=O)/C=C/C(C)=O)C5)c3c2)cc1NS(=O)(=O)c1ccc(F)cc1F show?
8.13

----------
Each record here notes measured pIC50.
systemTested: UniProt:P42336
testName: Inhibition of PI3Kα efficacy assay (ADP-Glo kinase assay)
Format: biochemical
assayContext: Table 1; read-out: PI3Kα inhibitory activity (IC50)
Recall that pIC50 is obtained by taking minus log10 of the concentration measured in molar.

>  <moleculeSmiles>
C=CC(=O)N1CCN(c2ncnc3c2CN(c2cnc(OC)c(NS(=O)(=O)c4ccc(F)cc4F)c2)CC3)CC1

>  <pIC50>
8.12

$$$$

Next molecule, pIC50 to be filled in.
I would be grateful if you could share the reported pIC50 for COc1ncc(-c2ccc3ncnc(N4CCN(C(=O)/C=C/C(C)=O)CC4)c3c2)cc1NS(=O)(=O)c1ccc(Cl)s1 .
8.82

----------
systemTested: PI3Kα (Homo sapiens (Human))
testName: Inhibition of PI3Kα efficacy assay (ADP-Glo kinase assay)
Assay type: biochemical
assayContext: Table 1; read-out: PI3Kα inhibitory activity (IC50)
endpointLabel: pIC50
On this scale, pIC50 is minus log10 of a concentration expressed in M (mol/L).

Some entries whose results are on file:
>  <moleculeSmiles>
C=CC(=O)N1CC2(CCN(c3ncnc4ccc(-c5cnc(OC)c(NS(=O)(=O)c6ccc(F)cc6F)c5)cc34)C2)C1

>  <measurement>
8.03

$$$$
>  <moleculeSmiles>
C=CC(=O)N1CCN(c2ncnc3ccc(-c4cnc(Cl)c(NS(=O)(=O)c5ccc(F)cc5F)c4)cc23)CC1

>  <measurement>
7.90

$$$$
>  <moleculeSmiles>
C=CC(=O)N1CCC(Nc2ncnc3ccc(-c4cnc(Cl)c(NS(=O)(=O)c5ccc(F)cc5F)c4)nc23)CC1

>  <measurement>
8.14

$$$$

Could you share what pIC50 was measured for C=C(F)C(=O)N1CCN(c2ncnc3ccc(-c4cnc(OC)c(NS(=O)(=O)c5ccc(F)cc5F)c4)cc23)[C@@H](C)C1 , tested on PI3Kα (Homo sapiens (Human))?
9.25

Record lookup: for PI3Kα (Homo sapiens (Human)), what pIC50 belongs to C=CC(=O)N1CCN(c2ncnc3ccc(-c4cnc(OC)c(NS(=O)(=O)c5ccc(Cl)s5)c4)cc23)CC1 ?
8.89

GET /values?readout=pIC50&system=PI3Kα (Homo sapiens (Human))&item= CC(=O)/C=C/C(=O)N1CCN(c2ncnc3ccc(-c4cncc(NS(=O)(=O)c5ccc(F)cc5F)c4)cc23)CC1
8.74

Query for PI3Kα (Homo sapiens (Human)): what pIC50 does the record show for C=CC(=O)N1CCN(c2ncnc3ccc(-c4cnc(OC)c(NS(C)(=O)=O)c4)cc23)CC1 ?
8.02

Hi! What's the reported pIC50 for COc1ncc(-c2ccc3ncnc(N4CCN(C(=O)/C=C/C(C)=O)CC4)c3c2)cc1NS(=O)(=O)c1c(F)cccc1F on PI3Kα (Homo sapiens (Human))?
7.94

For PI3Kα (Homo sapiens (Human)), provide pIC50 of C=CC(=O)N1CCN(c2ncnc3ccc(-c4cnc(OC)c(NS(=O)(=O)c5ccc(F)cc5F)c4)cc23)[C@@H](C)C1 please.
8.85

Entry source: patent US20250145589A1
